Entry source: patent US20070123556A1

Tested on: cultured cortical neurons
Assay: in vitro ischemia (sodium azide/glucose deprivation), fura-2 [Ca2+]i
Type: cell-based, rat
Conditions: Langmuir-Hill fit; read-out: IC50 (half-maximal concentration), inhibition of ischemia-evoked increases in [Ca2+]i
pIC50: −log10 of the molar value.
READOUT: pIC50

                      smiles_structure  readout  numeric_readout
0  CCN(CC)CCOCCOC(=O)C1(c2ccccc2)CCCC1    pIC50             4.89
